- study.system: T1, Human serum albumin (human, UniProt P02768 25-609)
- T1 construct: bought; immobilised on a CM5 chip by amine coupling; also called Human SA
- assay.text: SPR, SA on chip, VHH 300 nM, 25 C
Recorded measurements of koff, one per entry
property.label: koff (s⁻¹)

INSERT INTO assay_data (binder, unit_symbol, value) VALUES
  ('VHH moiety 27 (MC6.1C22-S107E) (VHH) VHH: EVQLLESGGGLVQPGGSLRLSCAASGRYIDETAVAWFRQAPGKEREFVAGIGGGVDITYYADSVKGRFTISRDNSKNTLYLQMNSLRPEDTAVYYCAARPGRPLITEKVADLYPYWGQGTLVTVSS', 's⁻¹', 0.014),
  ('VHH moiety 40 (MC6.1C95.43) (VHH) VHH: EVQLLESGGGLVQPGGSLRLSCAASGRYIDETAVAWFRQAPGKGREFVAGIGGGVDITYYADSVKGRFTISRDNSKNTLYLQMNSLRPEDTAVYYCGTRPGRPLITSKVADLYPYWGQGTLVTVSS', 's⁻¹', 0.00014),
  ('VHH moiety 9 (MC6.1C22-R27A) (VHH) VHH: EVQLLESGGGLVQPGGSLRLSCAASGAYIDETAVAWFRQAPGKEREFVAGIGGGVDITYYADSVKGRFTISRDNSKNTLYLQMNSLRPEDTAVYYCAARPGRPLITSKVADLYPYWGQGTLVTVSS', 's⁻¹', 0.0012),
  ('VHH moiety 16 (MC6.1C22-Y59T) (VHH) VHH: EVQLLESGGGLVQPGGSLRLSCAASGRYIDETAVAWFRQAPGKEREFVAGIGGGVDITTYADSVKGRFTISRDNSKNTLYLQMNSLRPEDTAVYYCAARPGRPLITSKVADLYPYWGQGTLVTVSS', 's⁻¹', 0.0039);
